Items are presented alongside their recorded growth inhibition.
test method notes: NCI Yeast Anticancer Drug Screen. Data for the mec2-1 strain (AID 157)
cond: S. cerevisiae mec2-1 strain, at 50.0 µM, stronger effect = higher value
Compounds without any hit were thinned out: in the full panel of roughly 79,000, 15% have a hit.
readout kind: growth inhibition (%)

[[record]]
compound = "C#CCOc1ccc(O)c(C(=O)OCCCOC(=O)c2cc(OCC#C)ccc2O)c1"
readout_kind = "growth inhibition"
reading = 6.95

[[record]]
compound = "COc1ccc(O)c(/C=N/NC(N)=S)c1"
readout_kind = "growth inhibition"
reading = -24.8

[[record]]
compound = "COc1cccc2c1OC(=O)C(S(=O)(=O)c1ccccc1)C2 (configuration not stated)"
readout_kind = "growth inhibition"
reading = -3.95

[[record]]
compound = "CN(CCO)CCN1c2ccccc2Sc2ccccc21"
readout_kind = "growth inhibition"
reading = -26.3

[[record]]
compound = "C=CC(=NC(C)C)N(C)c1ccccc1"
readout_kind = "growth inhibition"
reading = 13.9

[[record]]
compound = "CC(=O)Nc1ccc(O)c(C(=O)O)c1"
readout_kind = "growth inhibition"
reading = 7.3

[[record]]
compound = "O=S1c2ccccc2NC(c2ccc3ccccc3c2)CC1c1ccccc1 (configuration not stated)"
readout_kind = "growth inhibition"
reading = -22.1

[[record]]
compound = "COC=C(C(=O)OC)C(=O)OC"
readout_kind = "growth inhibition"
reading = 3.9

[[record]]
compound = "CCCCCCCCCCCCCCCCCC(=O)OCC1OC(OC2(OC(=O)CCCCCCCCCCCCCCCCC)OC(COC(=O)CCCCCCCCCCCCCCCCC)C(OC(=O)CCCCCCCCCCCCCCCCC)C2OC(=O)CCCCCCCCCCCCCCCCC)C(OC(=O)CCCCCCCCCCCCCCCCC)C(OC(=O)CCCCCCCCCCCCCCCCC)C1OC(=O)CCCCCCCCCCCCCCCCC (configuration not stated)"
readout_kind = "growth inhibition"
reading = 6

[[record]]
compound = "CCOC(=O)Cn1c(=O)c2nc(SC)sc2n(-c2ccccc2)c1=O"
readout_kind = "growth inhibition"
reading = 10.8

[[record]]
compound = "CN(C)CCCOCCn1c2c(c3ccccc31)CCCC2"
readout_kind = "growth inhibition"
reading = -1.2

[[record]]
compound = "O=C1NC(C(=O)O)CC1O (configuration not stated)"
readout_kind = "growth inhibition"
reading = 23.9

[[record]]
compound = "COc1cc(/C=C/C(=N\\NC(N)=S)c2sc(NNC(C)=O)nc2C)ccc1O"
readout_kind = "growth inhibition"
reading = 6.8

[[record]]
compound = "Cc1c(O)ccc2c1CCCC2"
readout_kind = "growth inhibition"
reading = 5.75

[[record]]
compound = "CCc1cccc(C(C)(C)C)c1NC(=S)N/C=C(/C#N)C(N)=O"
readout_kind = "growth inhibition"
reading = -7.45

[[record]]
compound = "CCOC(=O)c1c(-c2ccc(Cl)cc2)c(C#N)c(=S)n(C2OC(COC(C)=O)C(OC(C)=O)C(OC(C)=O)C2OC(C)=O)c1-c1ccccc1 (configuration not stated)"
readout_kind = "growth inhibition"
reading = -3.9

[[record]]
compound = "O=S(=O)(O)c1cccc(/C(=N\\Nc2ccccn2)c2ccccn2)c1"
readout_kind = "growth inhibition"
reading = 25.9

[[record]]
compound = "CCCc1n[nH]c(=S)n1N1C(=S)NC(C)(C)C=C1C"
readout_kind = "growth inhibition"
reading = -2

[[record]]
compound = "Cc1ccc(S(=O)(=O)SCC(=O)c2ccc(Br)cc2)cc1"
readout_kind = "growth inhibition"
reading = -15.4

[[record]]
compound = "O=C1C(=Cc2ccc([N+](=O)[O-])o2)C(=O)N(CCc2ccccc2)S(=O)(=O)N1CCc1ccccc1"
readout_kind = "growth inhibition"
reading = -3.65

[[record]]
compound = "CC(C)CNC(=O)c1ccccc1"
readout_kind = "growth inhibition"
reading = 5.1

[[record]]
compound = "CCN(C=O)c1ccccc1"
readout_kind = "growth inhibition"
reading = -7.55


###

Quick list: growth inhibition per entry.
test method notes: NCI Yeast Anticancer Drug Screen. Data for the sgs1 mgt1 strain (AID 161);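 also: 0% = growth of cultures given vehicle only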
cond: S. cerevisiae sgs1 mgt1 strain, at 50.0 µM, stronger effect = higher value
Method: Growth inhibition of yeast strains with defined genetic alterations is measured as a screen for potential anti-cancer activity. Selected strains with alterations in DNA damage repair or cell cycle control were exposed to compounds and growth inhibition was measured relative to vehicle treated controls. The strain used in this assay is sgs1 mgt1
This is part of a sample that, as a whole, favours compounds with a hit. Of some 79,000 tested, about 15% had one in any assay.
readout kind: growth inhibition (%)

[[record]]
molecule = "C#CCn1c(=O)c2ccccc2n(CC#C)c1=O"
readout_kind = "growth inhibition"
unit_label = "%"
reading = -6.3

[[record]]
molecule = "CCN(CC)CCOc1ccc(/C(C#N)=C/c2ccc(OCCN3CCCCC3)cc2)cc1"
readout_kind = "growth inhibition"
unit_label = "%"
reading = 57.3

[[record]]
molecule = "C=C1C2CC[C@@]3(CC[C@@H]4[C@@]5(C)CCC[C@@]4(CN4CCO[C@H]45)[C@@H]3C2)[C@@H]1O"
readout_kind = "growth inhibition"
unit_label = "%"
reading = 11.1

[[record]]
molecule = "COC(=O)c1cc(-c2ccc(OC)cc2)[nH]c(=O)c1C#N"
readout_kind = "growth inhibition"
unit_label = "%"
reading = 31.2

[[record]]
molecule = "O=C1C(=O)c2ccccc2C(O)=C1c1ccc(Br)cc1"
readout_kind = "growth inhibition"
unit_label = "%"
reading = -2.8

[[record]]
molecule = "COC(=O)Oc1nn(C(=O)OC)c(=O)c2ccccc12 (tested in a mixture with another compound)"
readout_kind = "growth inhibition"
unit_label = "%"
reading = 3

[[record]]
molecule = "Cc1cc(C)c(Br)c(C)c1C"
readout_kind = "growth inhibition"
unit_label = "%"
reading = -9.95

[[record]]
molecule = "c1ccc2c(c1)C1CC3N=NC1C23 (centres undefined)"
readout_kind = "growth inhibition"
unit_label = "%"
reading = -10.5

[[record]]
molecule = "c1csc(CNc2cccc3ccccc23)c1"
readout_kind = "growth inhibition"
unit_label = "%"
reading = 31.6

[[record]]
molecule = "CC1(C)CC(=O)C(N=Nc2ccccc2)=C(O)C1"
readout_kind = "growth inhibition"
unit_label = "%"
reading = -2.55

[[record]]
molecule = "Cc1n[nH]c(=O)n1-c1cccnc1"
readout_kind = "growth inhibition"
unit_label = "%"
reading = -9

[[record]]
molecule = "CCc1ccc2c(c1)/C(=N\\NC(N)=O)CCC2"
readout_kind = "growth inhibition"
unit_label = "%"
reading = -12.8

[[record]]
molecule = "COC1OC2COC(C)(C)OC2C1OS(=O)(=O)c1ccc(C)cc1 (centres undefined)"
readout_kind = "growth inhibition"
unit_label = "%"
reading = 6.4

[[record]]
molecule = "CC1(C(=O)O)CCC(C(=O)Nc2ccccc2)C1(C)C (centres undefined)"
readout_kind = "growth inhibition"
unit_label = "%"
reading = 5.05

[[record]]
molecule = "CN(C)CCNc1ccc2ncn3c4ccccc4c(=O)c1c23"
readout_kind = "growth inhibition"
unit_label = "%"
reading = -4.95

[[record]]
molecule = "CN(C)S(=O)(=O)C1(c2ccccc2)CCCC1"
readout_kind = "growth inhibition"
unit_label = "%"
reading = 6.2

[[record]]
molecule = "Cc1ccccc1OCC(O)COC(=O)CCS(=O)(=O)O (centres undefined)"
readout_kind = "growth inhibition"
unit_label = "%"
reading = -7.85

[[record]]
molecule = "O=[N+]([O-])c1ccn(O)c(=Nc2ccccc2)c1"
readout_kind = "growth inhibition"
unit_label = "%"
reading = 5.45

[[record]]
molecule = "Nc1nnc(/C=C/c2ccc(Cl)cc2)o1"
readout_kind = "growth inhibition"
unit_label = "%"
reading = -14.9

[[record]]
molecule = "O=[N+]([O-])c1ccc(OCc2ccccc2)c(Cl)c1"
readout_kind = "growth inhibition"
unit_label = "%"
reading = 25.9

[[record]]
molecule = "O=c1n(-c2ccccc2)c(=O)n2n1C1C3C4C5C1C5C2C43 (centres undefined)"
readout_kind = "growth inhibition"
unit_label = "%"
reading = 12.3

[[record]]
molecule = "CCCCCCCCCCCCCCCC[N+](C)(C)CCNC(C)=O"
readout_kind = "growth inhibition"
unit_label = "%"
reading = 99.7

[[record]]
molecule = "CC(=O)OCC1OC(n2c(C)cc(C)c(C#N)c2=S)C(OC(C)=O)C(OC(C)=O)C1OC(C)=O (centres undefined)"
readout_kind = "growth inhibition"
unit_label = "%"
reading = -5.35

[[record]]
molecule = "O=C(/C=C/c1ccncc1)c1ccccc1"
readout_kind = "growth inhibition"
unit_label = "%"
reading = -1.85

[[record]]
molecule = "COc1cc(CNc2nc3c(N)cc(C(F)(F)F)cc3nc2-c2ccccc2)cc(OC)c1OC"
readout_kind = "growth inhibition"
unit_label = "%"
reading = 6.6

[[record]]
molecule = "O=C1CC2C(=O)N(Cc3ccccc3)C(=O)C2C(=O)N1 (centres undefined)"
readout_kind = "growth inhibition"
unit_label = "%"
reading = -5.3

[[record]]
molecule = "CCC(=O)Oc1ccc(Cl)cc1C"
readout_kind = "growth inhibition"
unit_label = "%"
reading = 1.75

[[record]]
molecule = "Nc1[nH]c(=S)nc2nc3c(c(-c4ccccc4)c12)CCCC3"
readout_kind = "growth inhibition"
unit_label = "%"
reading = 6.95

[[record]]
molecule = "CN=C1C=C(/N=C2/C=C(N/C(=C\\C#N)C(C)(C)O)OC2(C)C)OC1(C)C"
readout_kind = "growth inhibition"
unit_label = "%"
reading = 13.6

[[record]]
molecule = "CC(C)OC(=O)Nc1cccc(NC(=O)OCCCl)c1"
readout_kind = "growth inhibition"
unit_label = "%"
reading = 9.15

[[record]]
molecule = "CN(C)c1ccc(C(=C2C=CC(=[N+](C)C)C=C2)c2c(O)c(S(=O)(=O)[O-])cc3cc(S(=O)(=O)O)ccc23)cc1"
readout_kind = "growth inhibition"
unit_label = "%"
reading = -41.5

[[record]]
molecule = "Cc1nc2nnc(N)n2nc1C"
readout_kind = "growth inhibition"
unit_label = "%"
reading = 3.75

[[record]]
molecule = "Cc1ccc(S(=O)(=O)Oc2c(Cl)cc(Cl)cc2Cl)cc1"
readout_kind = "growth inhibition"
unit_label = "%"
reading = 26.4

[[record]]
molecule = "COCOc1ccc(C(=O)C(C)c2ccc(OCOC)cc2OCOC)c(O)c1 (centres undefined)"
readout_kind = "growth inhibition"
unit_label = "%"
reading = 26.8

[[record]]
molecule = "O=C1COCCO1"
readout_kind = "growth inhibition"
unit_label = "%"
reading = 6.45

[[record]]
molecule = "C=CCOC(=O)Oc1ccc(Cl)cc1"
readout_kind = "growth inhibition"
unit_label = "%"
reading = 23.1

[[record]]
molecule = "Cc1nc(N)c(-c2ccccc2)s1"
readout_kind = "growth inhibition"
unit_label = "%"
reading = 7.2

[[record]]
molecule = "CN1CCC2(C1)C1CC3CC(C1)CC2C3 (centres undefined)"
readout_kind = "growth inhibition"
unit_label = "%"
reading = -8.5

[[record]]
molecule = "CC1(C)CC(=O)c2c([nH]c(=S)c(C#N)c2-c2ccc(Br)cc2)C1"
readout_kind = "growth inhibition"
unit_label = "%"
reading = -27.4

[[record]]
molecule = "CCN(CC)CCNC1=CC(=S)NC(C)(C)C1"
readout_kind = "growth inhibition"
unit_label = "%"
reading = -2.6

[[record]]
molecule = "C=C1C(=O)O[C@@H]2/C=C(\\C)CC/C=C(/C)CC[C@@H]12"
readout_kind = "growth inhibition"
unit_label = "%"
reading = 61.6

[[record]]
molecule = "O=C1C=CC2(CCC23C=CC(=O)O3)O1 (centres undefined)"
readout_kind = "growth inhibition"
unit_label = "%"
reading = 11

[[record]]
molecule = "N#Cc1ccc2ccccc2c1"
readout_kind = "growth inhibition"
unit_label = "%"
reading = 3

[[record]]
molecule = "Cc1cccc(C)c1NC(=O)Nc1cccc(O)c1"
readout_kind = "growth inhibition"
unit_label = "%"
reading = 13.5

[[record]]
molecule = "Cn1c(CBr)nc2c1C(=O)c1nc[nH]c(=O)c1C2=O"
readout_kind = "growth inhibition"
unit_label = "%"
reading = 37.6

[[record]]
molecule = "CC(C)CCN(C=O)c1ccccc1"
readout_kind = "growth inhibition"
unit_label = "%"
reading = 8.05

[[record]]
molecule = "O=C(NCCCl)NC(Cc1ccccc1)Cc1ccccc1"
readout_kind = "growth inhibition"
unit_label = "%"
reading = 15

[[record]]
molecule = "CCCOC1OC(CS(=O)(=O)O)C(OC(C)=O)C(OC(C)=O)C1OC(C)=O (centres undefined)"
readout_kind = "growth inhibition"
unit_label = "%"
reading = 8.4

[[record]]
molecule = "CCOc1ccc(Nc2nc(N)nc(N)c2N)cc1"
readout_kind = "growth inhibition"
unit_label = "%"
reading = -8.95


Numbers sourced from PubChem BioAssay (NCI).
